// provenance: ChEMBL document CHEMBL2086351

# test: Permeability of the compound at pH 7.4 by PAMPA
# Format: ADME
# condition.label: read-out: permeability

smiles.repr	Papp (×10⁻⁶ cm/s)
O=[N+]([O-])OCCOc1ccc(/C=[N+](\[O-])Cc2ccccc2)cc1	16.8
O=[N+]([O-])OCCCOc1ccc(/C=[N+](\[O-])Cc2ccccc2)cc1	22
CC(C)(C)/[N+]([O-])=C/c1cccc(C(F)(F)F)c1	27
Cc1ccc2nc(Cl)c(/C=[N+](\[O-])C(C)(C)C)cc2c1	15

* * *

# test: Induction of NO release in phosphate buffer at pH 7.4 assessed as nitrite level at 0.1 mM by nitrate reductase/NADPH based Griess assay in presence of L-cysteine
# Format: physicochemical
# condition.label: pH 7.4, 100 µM
# thresholds on Activity define classes: bottom: < 3%; middle: ≥ 3% and < 6%; top: ≥ 6%

smiles.repr	category
COc1ccc2c(c1)cc(/C=[N+](\[O-])C(C)(C)C)n2C	middle
CC(C)(C)/[N+]([O-])=C/c1c[nH]c2ccccc12	middle
COc1cc(Br)c(/C=[N+](\[O-])C(C)(C)C)cc1OC	bottom
COc1cc(/C=[N+](/C)[O-])ccc1O	top
CC(C)(C)/[N+]([O-])=C/c1cccnc1Br	middle
COc1cc(/C=[N+](\[O-])Cc2ccccc2)ccc1O	top
COc1cc(Br)c(/C=[N+](\[O-])Cc2ccccc2)cc1O	bottom
CC(C)(C)/[N+]([O-])=C/c1ccccc1	middle
COc1cc(Br)c(/C=[N+](\[O-])Cc2ccccc2)cc1OC	bottom
CC(C)(C)/[N+]([O-])=C/c1cccnc1Cl	middle

* * *

As shown below, each of these compounds has a reported Activity value.
# test: Induction of NO release in phosphate buffer at pH 7.4 at 0.1 mM by Griess assay in presence of L-cysteine
# Type: physicochemical
# condition.label: pH 7.4, 100 µM
readout.name: Activity

smiles.repr	readout.name	result
COc1cc(Br)c(/C=[N+](\[O-])C(C)(C)C)cc1O	Activity	2%
CC(C)(C)/[N+]([O-])=C/c1cccnc1Cl	Activity	2%
COc1cc(/C=[N+](/C)[O-])ccc1O	Activity	7%
COc1ccc2c(c1)cc(/C=[N+](\[O-])C(C)(C)C)n2C	Activity	3%
COc1cc(/C=[N+](\[O-])Cc2ccccc2)ccc1O	Activity	9%
COc1cc(Br)c(/C=[N+](\[O-])Cc2ccccc2)cc1O	Activity	2%
CC(C)(C)/[N+]([O-])=C/c1c[nH]c2ccccc12	Activity	3%
CC(C)(C)/[N+]([O-])=C/c1ccccc1	Activity	2%
COc1cc(Br)c(/C=[N+](\[O-])Cc2ccccc2)cc1OC	Activity	1%
COc1cc(Br)c(/C=[N+](\[O-])C(C)(C)C)cc1OC	Activity	1%
CC(C)(C)/[N+]([O-])=C/c1cccnc1Br	Activity	4%
COc1cc(/C=[N+](\[O-])Cc2ccccc2)c(Br)cc1O	Activity	5%

* * *

# system.under.test: Lipoxygenase (Glycine max) (UniProt Q39829)
# test: Inhibition of soybean lipoxygenase assessed as conversion of sodium linoleate to 13-hydroperoxylinoleic acid at 0.1 mM by competitive inhibition assay
The source made the active and inactive calls. No cut-off for these calls is given here.

smiles.repr	inhibition
CC(C)(C)/[N+]([O-])=C/c1ccc(OCCCO[N+](=O)[O-])cc1	57%
C/[N+]([O-])=C/c1ccccc1	22%
CC(C)(C)/[N+]([O-])=C/c1ccccc1	83%
COc1cc(Br)c(/C=[N+](\[O-])Cc2ccccc2)cc1OC	21%
CC(C)(C)/[N+]([O-])=C/c1ccc(Br)o1	39%
[O-]/[N+](=C\c1ccc(Br)o1)Cc1ccccc1	17%
CC(C)(C)c1cc(/C=[N+](\[O-])C(C)(C)C)cc(C(C)(C)C)c1O	inactive
O=[N+]([O-])OCCCOc1ccc(/C=[N+](\[O-])Cc2ccccc2)cc1	30%
CC(C)(C)c1cc(/C=[N+](\[O-])Cc2ccccc2)cc(C(C)(C)C)c1O	inactive
CC(C)(C)/[N+]([O-])=C/c1cccnc1Cl	59%
CC(C)(C)/[N+]([O-])=C/c1cccc(C(F)(F)F)c1	65%

* * *

# test: Antioxidant activity assessed as inhibition of AAPH-induced lipid peroxidation at 0.1 mM by UV spectrophotometric analysis
# Format: functional
Active and inactive are the calls of the source. The rule behind the calls is not given here.
readout.name: inhibition

smiles.repr	readout.name	result
COc1ccc2c(c1)cc(/C=[N+](\[O-])C(C)(C)C)n2C	inhibition	80%
CC(C)(C)/[N+]([O-])=C/c1ccccc1	inhibition	inactive
COc1cc(Br)c(/C=[N+](\[O-])Cc2ccccc2)cc1OC	inhibition	inactive
